- TARGET: USP25 (UniProt Q9UHP3)
- Sequence (Q9UHP3 whole entry, the tested form may be a part): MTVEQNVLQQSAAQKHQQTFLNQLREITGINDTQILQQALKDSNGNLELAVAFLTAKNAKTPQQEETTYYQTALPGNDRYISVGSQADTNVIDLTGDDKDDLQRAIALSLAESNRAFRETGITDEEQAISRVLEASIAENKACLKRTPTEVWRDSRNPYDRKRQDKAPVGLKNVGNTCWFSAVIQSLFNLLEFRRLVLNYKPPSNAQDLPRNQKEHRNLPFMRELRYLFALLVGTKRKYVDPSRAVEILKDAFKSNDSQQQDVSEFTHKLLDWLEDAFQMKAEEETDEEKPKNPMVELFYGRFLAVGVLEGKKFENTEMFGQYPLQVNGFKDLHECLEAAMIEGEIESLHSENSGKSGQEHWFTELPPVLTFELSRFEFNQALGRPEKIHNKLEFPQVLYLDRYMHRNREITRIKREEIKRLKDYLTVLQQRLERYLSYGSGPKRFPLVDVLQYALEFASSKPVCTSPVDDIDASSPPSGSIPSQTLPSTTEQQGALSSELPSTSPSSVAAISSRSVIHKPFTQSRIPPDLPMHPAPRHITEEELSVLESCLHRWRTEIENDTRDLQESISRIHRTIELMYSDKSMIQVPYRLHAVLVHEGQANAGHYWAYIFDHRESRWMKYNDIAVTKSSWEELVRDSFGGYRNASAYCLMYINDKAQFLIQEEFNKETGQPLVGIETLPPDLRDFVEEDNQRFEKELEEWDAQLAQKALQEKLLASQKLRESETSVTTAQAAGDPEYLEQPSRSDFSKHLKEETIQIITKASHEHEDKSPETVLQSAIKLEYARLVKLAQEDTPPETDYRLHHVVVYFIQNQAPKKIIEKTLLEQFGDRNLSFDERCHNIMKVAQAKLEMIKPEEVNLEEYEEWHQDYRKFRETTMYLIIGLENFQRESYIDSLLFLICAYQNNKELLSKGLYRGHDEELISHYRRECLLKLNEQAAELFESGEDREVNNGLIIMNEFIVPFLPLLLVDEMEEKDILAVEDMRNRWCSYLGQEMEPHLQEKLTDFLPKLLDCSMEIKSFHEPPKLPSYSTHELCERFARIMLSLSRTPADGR
- PROTOCOL DESCRIPTION: log2 ratio of Biotin-Ahx-Ub-VS probe labelling (fragment/DMSO); higher = less target engagement (more negative = stronger competition), active = hit call of the paper (q ≤ 0.05, log2 ratio ≤ -1)
- TEST PARAMETERS: compound concentration: 200 uM; treatment time: 3 h
Tag: Fulfilled if measured log2 ratio of Biotin-Ahx-Ub-VS probe labelling is not below -0.5, Not fulfilled if it is.

**Q:** Is log2 ratio of Biotin-Ahx-Ub-VS probe labelling for `Cl.O=C(CCl)N1CCn2cncc2C1` at or above -0.5?
**A:** Fulfilled

**Q:** Is log2 ratio of Biotin-Ahx-Ub-VS probe labelling for `CS(=O)(=O)N1CCCN(C(=O)CCl)CC1` at or above -0.5?
**A:** Fulfilled

**Q:** Is log2 ratio of Biotin-Ahx-Ub-VS probe labelling for `C#Cc1cccc(NC(=O)CCl)c1` at or above -0.5?
**A:** Not fulfilled

**Q:** Is log2 ratio of Biotin-Ahx-Ub-VS probe labelling for `CCN(Cc1ccc(C#N)cc1F)C(=O)CCl` at or above -0.5?
**A:** Not fulfilled

**Q:** Is log2 ratio of Biotin-Ahx-Ub-VS probe labelling for `Cc1ccccc1OCC(=O)N1CCN(C(=O)CCl)CC1` at or above -0.5?
**A:** Fulfilled

**Q:** Is log2 ratio of Biotin-Ahx-Ub-VS probe labelling for CC(NC(=O)CCl)c1cccc(Cl)c1 (configuration not stated) at or above -0.5?
**A:** Not fulfilled

**Q:** Is log2 ratio of Biotin-Ahx-Ub-VS probe labelling for CCN(C(=O)CCl)C1CCS(=O)(=O)C1 (configuration not stated) at or above -0.5?
**A:** Fulfilled

**Q:** Is log2 ratio of Biotin-Ahx-Ub-VS probe labelling for `Cl.O=C(CCl)NC1(c2ncccn2)CCC1` at or above -0.5?
**A:** Fulfilled

**Q:** Is log2 ratio of Biotin-Ahx-Ub-VS probe labelling for `Cc1nc(CN2CCCN(C(=O)CCl)CC2)no1.Cl` at or above -0.5?
**A:** Fulfilled

**Q:** Is log2 ratio of Biotin-Ahx-Ub-VS probe labelling for `O=C(CCl)N1c2ccccc2NC(=O)C12CCCC2` at or above -0.5?
**A:** Fulfilled

**Q:** Is log2 ratio of Biotin-Ahx-Ub-VS probe labelling for `O=C(CCl)N1CCC(C(=O)N2CCCCCC2)CC1` at or above -0.5?
**A:** Fulfilled

**Q:** Is log2 ratio of Biotin-Ahx-Ub-VS probe labelling for `Cc1nc(CC2CCN(C(=O)CCl)CC2)no1` at or above -0.5?
**A:** Not fulfilled

**Q:** Is log2 ratio of Biotin-Ahx-Ub-VS probe labelling for `O=C(CCl)NC1(c2ccc3c(c2)OCCO3)CCCC1` at or above -0.5?
**A:** Fulfilled

**Q:** Is log2 ratio of Biotin-Ahx-Ub-VS probe labelling for `Cc1cccn2cc(CCNC(=O)CCl)nc12.Cl` at or above -0.5?
**A:** Fulfilled

**Q:** Is log2 ratio of Biotin-Ahx-Ub-VS probe labelling for `COc1cc(Cl)c(C)cc1NC(=O)CCl` at or above -0.5?
**A:** Not fulfilled

**Q:** Is log2 ratio of Biotin-Ahx-Ub-VS probe labelling for `O=C(CCl)N1CCN(C(=O)Nc2ccccc2)CC1` at or above -0.5?
**A:** Fulfilled

**Q:** Is log2 ratio of Biotin-Ahx-Ub-VS probe labelling for `Cc1cnc2[nH]cc(CCNC(=O)CCl)c2c1` at or above -0.5?
**A:** Fulfilled

**Q:** Is log2 ratio of Biotin-Ahx-Ub-VS probe labelling for O=C(O)C1Cc2ccccc2CN1C(=O)CCl (configuration not stated) at or above -0.5?
**A:** Fulfilled

**Q:** Is log2 ratio of Biotin-Ahx-Ub-VS probe labelling for `O=C(CCl)N(C1=CCCCC1)C1CC1` at or above -0.5?
**A:** Fulfilled

**Q:** Is log2 ratio of Biotin-Ahx-Ub-VS probe labelling for `CC(=O)Nc1ccc(NC(=O)CCl)cc1` at or above -0.5?
**A:** Not fulfilled

**Q:** Is log2 ratio of Biotin-Ahx-Ub-VS probe labelling for `CN(C)S(=O)(=O)c1ccccc1CNC(=O)CCl` at or above -0.5?
**A:** Fulfilled

**Q:** Is log2 ratio of Biotin-Ahx-Ub-VS probe labelling for O=C(CCl)N1CCc2nc[nH]c2C1c1ccc(Cl)cc1 (configuration not stated) at or above -0.5?
**A:** Not fulfilled

**Q:** Is log2 ratio of Biotin-Ahx-Ub-VS probe labelling for O=C(CCl)N1CCCC2CCCCC21 (configuration not stated) at or above -0.5?
**A:** Fulfilled

**Q:** Is log2 ratio of Biotin-Ahx-Ub-VS probe labelling for `O=C(CCl)N1CCC(=C(F)CO)C1` at or above -0.5?
**A:** Fulfilled

**Q:** Is log2 ratio of Biotin-Ahx-Ub-VS probe labelling for CC1(NC(=O)CCl)CCS(=O)(=O)C1 (configuration not stated) at or above -0.5?
**A:** Not fulfilled

**Q:** Is log2 ratio of Biotin-Ahx-Ub-VS probe labelling for O=C(CCl)NCCC1COCCO1 (configuration not stated) at or above -0.5?
**A:** Fulfilled

**Q:** Is log2 ratio of Biotin-Ahx-Ub-VS probe labelling for `C/C(=C\CNC(=O)CCl)c1cnn(C)c1.Cl` at or above -0.5?
**A:** Not fulfilled

**Q:** Is log2 ratio of Biotin-Ahx-Ub-VS probe labelling for `O=C(CCl)Nc1ccc(N2CCCC2=O)cc1` at or above -0.5?
**A:** Not fulfilled

**Q:** Is log2 ratio of Biotin-Ahx-Ub-VS probe labelling for `Cc1cccnc1NC(=O)C1CCN(C(=O)CCl)CC1.Cl` at or above -0.5?
**A:** Fulfilled

**Q:** Is log2 ratio of Biotin-Ahx-Ub-VS probe labelling for `Cl.O=C(CCl)N1CCn2ncc(O)c2C1` at or above -0.5?
**A:** Not fulfilled

**Q:** Is log2 ratio of Biotin-Ahx-Ub-VS probe labelling for `Cc1cccc(C)c1NC(=O)CCl` at or above -0.5?
**A:** Fulfilled

**Q:** Is log2 ratio of Biotin-Ahx-Ub-VS probe labelling for `Cc1ccccc1C1(CNC(=O)CCl)CCOCC1` at or above -0.5?
**A:** Fulfilled

**Q:** Is log2 ratio of Biotin-Ahx-Ub-VS probe labelling for `O=C(CCl)N1CCN(c2nc3ccccc3o2)CC1` at or above -0.5?
**A:** Not fulfilled

**Q:** Is log2 ratio of Biotin-Ahx-Ub-VS probe labelling for Cl.Cn1ncc2c1CCCC2NC(=O)CCl (configuration not stated) at or above -0.5?
**A:** Fulfilled

**Q:** Is log2 ratio of Biotin-Ahx-Ub-VS probe labelling for CC(NC(=O)CCl)c1cc2n(n1)CCCC2.Cl (configuration not stated) at or above -0.5?
**A:** Fulfilled

**Q:** Is log2 ratio of Biotin-Ahx-Ub-VS probe labelling for `NS(=O)(=O)c1ccc(Cl)c(NC(=O)CCl)c1` at or above -0.5?
**A:** Not fulfilled

**Q:** Is log2 ratio of Biotin-Ahx-Ub-VS probe labelling for `CN(C(=O)CCl)c1nc2ccccc2s1` at or above -0.5?
**A:** Fulfilled

**Q:** Is log2 ratio of Biotin-Ahx-Ub-VS probe labelling for `O=C(CCl)Nc1cccc(C(=O)N2CCSCC2)c1` at or above -0.5?
**A:** Not fulfilled

**Q:** Is log2 ratio of Biotin-Ahx-Ub-VS probe labelling for CCN1C(=O)C2CN(C(=O)CCl)CCN2C1=O (configuration not stated) at or above -0.5?
**A:** Fulfilled

**Q:** Is log2 ratio of Biotin-Ahx-Ub-VS probe labelling for `Cc1noc(C)c1CNC(=O)CCl` at or above -0.5?
**A:** Not fulfilled

**Q:** Is log2 ratio of Biotin-Ahx-Ub-VS probe labelling for `Cc1ccc(-c2nnc(C)[nH]2)c(NC(=O)CCl)c1` at or above -0.5?
**A:** Not fulfilled

**Q:** Is log2 ratio of Biotin-Ahx-Ub-VS probe labelling for `O=C(CCl)N1CCN(C(=O)N2CCCCC2)CC1` at or above -0.5?
**A:** Not fulfilled

**Q:** Is log2 ratio of Biotin-Ahx-Ub-VS probe labelling for `Cc1ccn2cc(CNC(=O)CCl)nc2c1.Cl` at or above -0.5?
**A:** Fulfilled

**Q:** Is log2 ratio of Biotin-Ahx-Ub-VS probe labelling for `O=C(CCl)Nc1cc2c(cc1Cl)OCCCO2` at or above -0.5?
**A:** Not fulfilled

**Q:** Is log2 ratio of Biotin-Ahx-Ub-VS probe labelling for CN(CCC(O)c1ccc(Br)cc1)C(=O)CCl (configuration not stated) at or above -0.5?
**A:** Fulfilled
